EXPERIMENTAL SYSTEM: T1, human VTCN1 expressed on cells (293-VTCN1 cells; SKBR3, MX-1 and ZR-75-1 cells that express it naturally) (human, UniProt Q7Z7D3 25-282)
T1 construct: The cDNA was bought from Origene
T1 sequence: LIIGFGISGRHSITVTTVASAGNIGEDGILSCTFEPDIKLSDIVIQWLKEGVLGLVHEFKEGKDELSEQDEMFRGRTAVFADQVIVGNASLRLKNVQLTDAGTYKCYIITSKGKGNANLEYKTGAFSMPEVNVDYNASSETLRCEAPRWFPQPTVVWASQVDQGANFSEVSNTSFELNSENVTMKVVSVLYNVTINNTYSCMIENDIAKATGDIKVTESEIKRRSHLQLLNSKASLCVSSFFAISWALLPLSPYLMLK
EXPERIMENT DESCRIPTION: flow cytometry, antibody titration on SKBR3 cells (endogenous VTCN1)
READOUT TYPE: EC50 (nM)
Write the number in nM without appending the unit.

BINDER	RESULT UNITS	EXPERIMENTAL RESULT
7G7_44C6 (antibody, V domains shown, Fully human antibody) VH: QVQLQESGPGLVKPSETLSLTCTVSGGSISHYYWSWIRQPPGKGLEWIGYIYYSGPTNYNPSLKSRVTISVDTSKNQFSLKLSSVTAADTAVYYCARTYYYGSGSFPDAFDIWGQGTMVTVSS VL: KIVLTQSPATLSLSPGERATLSCRASQSVSSYLAWYQQTPGQAPRLLIYDASNRATGIPARFSVSGSGTDFTLTISSLEPEDFAVYYCQQRSSWPLTFGGGTKLEIK	nM	36.8

Alright, here's another binder for you.
Q. # EC50 lookup, item 12B5_44B1 (antibody, V domains shown, Fully human antibody) VH: QVQLVQSGAEVKKPGSSMKVSCKASGDTFSSYAISWVRQAPGQGLEWMAGIIPVFGTAHNAQKFQGRVTITADKSTSTAYMELSSLRSEDTAVYYCTRGGPYFDYWGQGTLVTVSS VL: EIVMTQSPATLSVSPGERAALSCRASQSVSSNLAWYQQKPGQAPRLLIYGVSTRATGIPDRFNGSGSGTEFTLTISSLQSEDFGAYYCQQYKKWPFIFGPGTKLEIK
A. 35.5

Numbers sourced from patent US20240294644A1.
